Experiment: Second PK study: daily oral dose for 5 days, two formulations
Type: in vivo, female Swiss Albino mice
Conditions: female, Swiss Albino, mouse, plasma, po, 5 mg/kg, day 5, daily oral 5 mg/kg, Formulation 2, female mice, AUC0-24 h
observation.type: AUC(0-t) (ng·h/mL)
// return numeric value only (unit: ng·h/mL, not printed)

For COc1cc(N2CCNCC2)ccc1Nc1ncc2c(n1)-n1ccc(C(=O)Nc3c(C)cccc3C)c1CC2 , what is its reported AUC(0-t)? 570

----------
Test: First PK study: single oral dose, two formulations
Type: in vivo, female Swiss Albino mice
Conditions: Swiss Albino, mouse, plasma; single oral 7.5 mg/kg, Formulation 1, female mice; read-out: Tmax
Protocol: Plasma samples were collected on day 1 for Groups 1 to 6. Formulation 1 consisted of DMSO, cremophor EL, and 5% mannitol in water (10/10/80; v/v/v). Formulation 2 consisted of ethanol, PEG 400, and citric acid 20 mM (10/10/80; v/v/v). […] In each of the three studies blood was collected via the sephanous vein into K2-EDTA tubes kept on ice until centrifugation at 4° C. Plasma was stored at ap-proximately-80° C. […] PK parameters were calculated using Phoenix® WinNonLin 6.4. […]
observation.type: Tmax (h)
// return numeric value only (unit: h, not printed)

For COc1cc(N2CCNCC2)ccc1Nc1ncc2c(n1)-n1ccc(C(=O)Nc3c(C)cccc3C)c1CC2 , what is its reported Tmax? 4
